System: 186277-243-T-J2-PDC complex spheroid viability
Assay: Anticancer human tumor 186277-243-T-J2-PDC patient-derived colon adenocarcinoma cell line growth inhibition [GQUAD]
Settings: second compound 0.316 µM; first compound 1 µM; stronger effect = lower value
Here the recorded viability, T/C is given for each entry.

| COMPOUND | TEST TARGET | viability, T/C |
| --- | --- | --- |
| Nc1ccn(C2OC(CO)C(O)C2(F)F)c(=O)n1 (stereo not drawn) + Cc1[nH]c2ccc(F)cc2c1-c1nc2c3cccnc3c3ncccc3c2[nH]1 | 186277-243-T-J2-PDC complex spheroid viability | 10.4% |
| CC(C)n1c(=O)n(C)c2cnc3cc(F)c(-c4ccc(OCCCN5CCCCC5)nc4)cc3c21 + CN(C)c1ccc(Nc2c3ccc(NC(=O)CCN4CCCC4)cc3nc3cc(NC(=O)CCN4CCCC4)ccc23)cc1 | 186277-243-T-J2-PDC complex spheroid viability | 98.3% |
| CC1COCCN1c1cc(C2(S(C)(=N)=O)CC2)nc(-c2ccnc3[nH]ccc23)n1 (stereo not drawn) + CN(C)c1ccc(Nc2c3ccc(NC(=O)CCN4CCCC4)cc3nc3cc(NC(=O)CCN4CCCC4)ccc23)cc1 | 186277-243-T-J2-PDC complex spheroid viability | 65.2% |

###

System: 186277-243-T-J2-PDC complex spheroid viability
Assay: Anticancer human tumor 186277-243-T-J2-PDC cell line growth inhibition [GQUAD];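 further: spheroids exposed to drugs for 7 days; 100% = DMSO vehicle control viability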
Details: second compound 1 µM; first compound 3.16 µM; stronger effect = lower value

| MOLECULE | viability, T/C, % |
| --- | --- |
| COc1ncnc(C2CC2)c1-c1ncc2cnn(Cc3ccc(-c4nc(C(F)(F)F)cn4C(C)C)cc3)c2n1 + CN(C)c1ccc(Nc2c3ccc(NC(=O)CCN4CCCC4)cc3nc3cc(NC(=O)CCN4CCCC4)ccc23)cc1 | 112 |
| O=c1[nH]cc(F)c(=O)[nH]1 + Cc1cnc(CNC(=O)c2c(=O)c3ccc(N4CCCN(C)CC4)nc3n3c2sc2ccccc23)cn1 | 64.3 |
| CC1COCCN1c1cc(C2(O)CC3CCC(C2)O3)c2cnn(-c3ccn[nH]3)c2n1 (stereo not drawn) + Cc1[nH]c2ccc(F)cc2c1-c1nc2c3cccnc3c3ncccc3c2[nH]1 | 6.18 |

###

Tested on: 186277-243-T-J2-PDC complex spheroid viability
Test: Anticancer human tumor 186277-243-T-J2-PDC cell line growth inhibition [GQUAD];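 further: spheroids exposed to drugs for 7 days; 100% = DMSO vehicle control viability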
Details: second compound 1 µM; first compound 0.316 µM; stronger effect = lower value

| MOLECULE | TEST TARGET | viability, T/C, % |
| --- | --- | --- |
| O=C(NO)c1cnc(N2CCN(S(=O)(=O)c3ccc4ccccc4c3)CC2)nc1 + Cc1cnc(CNC(=O)c2c(=O)c3ccc(N4CCCN(C)CC4)nc3n3c2sc2ccccc23)cn1 | 186277-243-T-J2-PDC complex spheroid viability | 8.56 |
| Cc1cccc(N(C)C(=O)C2C(O)CCN2c2nc(C)cc(C(F)(F)F)c2C#N)c1 (stereo not given) + Cc1cnc(CNC(=O)c2c(=O)c3ccc(N4CCCN(C)CC4)nc3n3c2sc2ccccc23)cn1 | 186277-243-T-J2-PDC complex spheroid viability | 68.6 |
| CC(C)(O)C1CCC(Nc2ccc3ncc(-c4cccc(C(F)(F)F)c4)n3n2)CC1 (stereo not given) + Cc1[nH]c2ccc(F)cc2c1-c1nc2c3cccnc3c3ncccc3c2[nH]1 | 186277-243-T-J2-PDC complex spheroid viability | 90.5 |
| CCCS(=O)(=O)Nc1ccc(F)c(C(=O)c2c[nH]c3ncc(-c4ccc(Cl)cc4)cc23)c1F + CN(C)c1ccc(Nc2c3ccc(NC(=O)CCN4CCCC4)cc3nc3cc(NC(=O)CCN4CCCC4)ccc23)cc1 | 186277-243-T-J2-PDC complex spheroid viability | 84.4 |
| COc1cc(C2c3cc4c(cc3C(OC3OC5COC(C)OC5C(O)C3O)C3COC(=O)C23)OCO4)cc(OC)c1O (stereo not given) + CN(C)c1ccc(Nc2c3ccc(NC(=O)CCN4CCCC4)cc3nc3cc(NC(=O)CCN4CCCC4)ccc23)cc1 | 186277-243-T-J2-PDC complex spheroid viability | 74.6 |

###

Test system: 186277-243-T-J2-PDC complex spheroid viability
Assay: Anticancer human tumor 186277-243-T-J2-PDC cell line growth inhibition [GQUAD]; active = viability on the fitted dose curve at most 10% of control; inactive = the rest;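 further: spheroids exposed to drugs for 7 days; 100% = DMSO vehicle control viability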
Conditions: second compound 0.0316 µM; first compound 0.316 µM
Excerpt: DNA G-quadruplex Stabilizer Agents in Combinations in Complex Spheroids A high-throughput screen of multi-cell type tumor spheroids was designed to identify active combinations of DNA G-quadruplex stabilizer agents and targeted small molecules. […] Compounds. […] If the clinical Cmax for an agent had not been determined, the highest concentration tested was 10 microM. […]
Outcome codes: TRUE (active), FALSE (inactive)

| COMPOUND | GROUP LABEL |
| --- | --- |
| CC(C)(O)C1CCC(Nc2ccc3ncc(-c4cccc(C(F)(F)F)c4)n3n2)CC1 (stereo not given) + Cc1[nH]c2ccc(F)cc2c1-c1nc2c3cccnc3c3ncccc3c2[nH]1 | FALSE |
| C=CC(=O)N1CCN(c2nc(=O)n(-c3c(C)ccnc3C(C)C)c3nc(-c4c(O)cccc4F)c(F)cc23)C(C)C1 (stereo not given) + Cc1cnc(CNC(=O)c2c(=O)c3ccc(N4CCCN(C)CC4)nc3n3c2sc2ccccc23)cn1 | FALSE |
| Cc1[nH]c2ccccc2c1CCNCc1ccc(/C=C/C(=O)NO)cc1 + Cc1[nH]c2ccc(F)cc2c1-c1nc2c3cccnc3c3ncccc3c2[nH]1 | TRUE |
| COc1cccc2c1C(=O)c1c(O)c3c(c(O)c1C2=O)CC(O)(C(=O)CO)CC3OC1CC(N)C(O)C(C)O1 (stereo not given) + Cc1cnc(CNC(=O)c2c(=O)c3ccc(N4CCCN(C)CC4)nc3n3c2sc2ccccc23)cn1 | FALSE |
| CC1COCCN1c1cc(C2(O)CC3CCC(C2)O3)c2cnn(-c3ccn[nH]3)c2n1 (stereo not given) + Cc1[nH]c2ccc(F)cc2c1-c1nc2c3cccnc3c3ncccc3c2[nH]1 | TRUE |

###

System: 186277-243-T-J2-PDC complex spheroid viability
Assay: Anticancer human tumor 186277-243-T-J2-PDC cell line growth inhibition [GQUAD];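 further: spheroids exposed to drugs for 7 days; 100% = DMSO vehicle control viability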
Details: second compound 0.1 µM; first compound 0.1 µM; stronger effect = lower value

| COMPOUND | DISPLAY UNIT | viability, T/C |
| --- | --- | --- |
| Cc1cccc(N(C)C(=O)C2C(O)CCN2c2nc(C)cc(C(F)(F)F)c2C#N)c1 (centres undefined) + Cc1[nH]c2ccc(F)cc2c1-c1nc2c3cccnc3c3ncccc3c2[nH]1 | % | 97.1 |
| O=C(c1cc(Cc2n[nH]c(=O)c3ccccc23)ccc1F)N1CCN(C(=O)C2CC2)CC1 + Cc1[nH]c2ccc(F)cc2c1-c1nc2c3cccnc3c3ncccc3c2[nH]1 | % | 106 |
| CC1COCCN1c1cc(C2(S(C)(=N)=O)CC2)nc(-c2ccnc3[nH]ccc23)n1 (centres undefined) + CN(C)c1ccc(Nc2c3ccc(NC(=O)CCN4CCCC4)cc3nc3cc(NC(=O)CCN4CCCC4)ccc23)cc1 | % | 102 |
| CC(C)(O)C1CCC(Nc2ccc3ncc(-c4cccc(C(F)(F)F)c4)n3n2)CC1 (centres undefined) + Cc1cnc(CNC(=O)c2c(=O)c3ccc(N4CCCN(C)CC4)nc3n3c2sc2ccccc23)cn1 | % | 78.1 |
| CC(=O)O[C@H]1C(=O)[C@@]2(C)[C@H]([C@H](OC(=O)c3ccccc3)[C@]3(O)C[C@H](OC(=O)[C@H](O)[C@@H](NC(=O)c4ccccc4)c4ccccc4)C(C)=C1C3(C)C)[C@]1(OC(C)=O)CO[C@@H]1C[C@@H]2O + CN(C)c1ccc(Nc2c3ccc(NC(=O)CCN4CCCC4)cc3nc3cc(NC(=O)CCN4CCCC4)ccc23)cc1 | % | 7.57 |
| O=c1[nH]cc(F)c(=O)[nH]1 + Cc1[nH]c2ccc(F)cc2c1-c1nc2c3cccnc3c3ncccc3c2[nH]1 | % | 86.5 |
| C=CC(=O)N1CCN(c2nc(=O)n(-c3c(C)ccnc3C(C)C)c3nc(-c4c(O)cccc4F)c(F)cc23)C(C)C1 (centres undefined) + CN(C)c1ccc(Nc2c3ccc(NC(=O)CCN4CCCC4)cc3nc3cc(NC(=O)CCN4CCCC4)ccc23)cc1 | % | 96.1 |
| COc1cc(C2c3cc4c(cc3C(OC3OC5COC(C)OC5C(O)C3O)C3COC(=O)C23)OCO4)cc(OC)c1O (centres undefined) + Cc1cnc(CNC(=O)c2c(=O)c3ccc(N4CCCN(C)CC4)nc3n3c2sc2ccccc23)cn1 | % | 82.5 |
| CC(=O)O[C@H]1C(=O)[C@@]2(C)[C@H]([C@H](OC(=O)c3ccccc3)[C@]3(O)C[C@H](OC(=O)[C@H](O)[C@@H](NC(=O)c4ccccc4)c4ccccc4)C(C)=C1C3(C)C)[C@]1(OC(C)=O)CO[C@@H]1C[C@@H]2O + Cc1cnc(CNC(=O)c2c(=O)c3ccc(N4CCCN(C)CC4)nc3n3c2sc2ccccc23)cn1 | % | 18.3 |
